ASSAY TARGET: T1, TNFR1 (Homo sapiens, UniProt P19438)
T1 chain: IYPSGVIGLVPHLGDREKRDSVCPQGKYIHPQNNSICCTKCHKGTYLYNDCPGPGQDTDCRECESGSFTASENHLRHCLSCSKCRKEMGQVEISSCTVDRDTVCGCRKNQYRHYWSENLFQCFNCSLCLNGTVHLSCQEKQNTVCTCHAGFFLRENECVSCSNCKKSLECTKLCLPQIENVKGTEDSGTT
TEST SUMMARY: yeast display SC50
PARAMETER: apparent Kd (screen) (nM)

BINDER	RESULT UNITS	apparent Kd (screen)
E14L (designed binder) SMEEEVEKAAKEYLKKKKEAIEKHLEKLKAKDKEAAERFLKELEEAAKEYAKDEAKTMSEEEAKRRAKKYKEKVLLSELSEEEQKEIKEAEEKLVRTILKYVEEAAK	nM	7.07
A90Q (designed binder) SMEEEVEKAAKEYEKKKKEAIEKHLEKLKAKDKEAAERFLKELEEAAKEYAKDEAKTMSEEEAKRRAKKYKEKVLLSELSEEEQKEIKEQEEKLVRTILKYVEEAAK	nM	0.49

P = E91S (designed binder) SMEEEVEKAAKEYEKKKKEAIEKHLEKLKAKDKEAAERFLKELEEAAKEYAKDEAKTMSEEEAKRRAKKYKEKVLLSELSEEEQKEIKEASEKLVRTILKYVEEAAK
Q = K48W (designed binder) SMEEEVEKAAKEYEKKKKEAIEKHLEKLKAKDKEAAERFLKELEEAAWEYAKDEAKTMSEEEAKRRAKKYKEKVLLSELSEEEQKEIKEAEEKLVRTILKYVEEAAK
For P and Q , which recorded apparent Kd (screen) is lower? Please identify the chosen entry by its label.
Q

// data source = paper PMC12416549
